# measurement.target: Receptor tyrosine-protein kinase erbB-2 (Homo sapiens) (UniProt P04626)
# Sequence (P04626 whole entry, looked up): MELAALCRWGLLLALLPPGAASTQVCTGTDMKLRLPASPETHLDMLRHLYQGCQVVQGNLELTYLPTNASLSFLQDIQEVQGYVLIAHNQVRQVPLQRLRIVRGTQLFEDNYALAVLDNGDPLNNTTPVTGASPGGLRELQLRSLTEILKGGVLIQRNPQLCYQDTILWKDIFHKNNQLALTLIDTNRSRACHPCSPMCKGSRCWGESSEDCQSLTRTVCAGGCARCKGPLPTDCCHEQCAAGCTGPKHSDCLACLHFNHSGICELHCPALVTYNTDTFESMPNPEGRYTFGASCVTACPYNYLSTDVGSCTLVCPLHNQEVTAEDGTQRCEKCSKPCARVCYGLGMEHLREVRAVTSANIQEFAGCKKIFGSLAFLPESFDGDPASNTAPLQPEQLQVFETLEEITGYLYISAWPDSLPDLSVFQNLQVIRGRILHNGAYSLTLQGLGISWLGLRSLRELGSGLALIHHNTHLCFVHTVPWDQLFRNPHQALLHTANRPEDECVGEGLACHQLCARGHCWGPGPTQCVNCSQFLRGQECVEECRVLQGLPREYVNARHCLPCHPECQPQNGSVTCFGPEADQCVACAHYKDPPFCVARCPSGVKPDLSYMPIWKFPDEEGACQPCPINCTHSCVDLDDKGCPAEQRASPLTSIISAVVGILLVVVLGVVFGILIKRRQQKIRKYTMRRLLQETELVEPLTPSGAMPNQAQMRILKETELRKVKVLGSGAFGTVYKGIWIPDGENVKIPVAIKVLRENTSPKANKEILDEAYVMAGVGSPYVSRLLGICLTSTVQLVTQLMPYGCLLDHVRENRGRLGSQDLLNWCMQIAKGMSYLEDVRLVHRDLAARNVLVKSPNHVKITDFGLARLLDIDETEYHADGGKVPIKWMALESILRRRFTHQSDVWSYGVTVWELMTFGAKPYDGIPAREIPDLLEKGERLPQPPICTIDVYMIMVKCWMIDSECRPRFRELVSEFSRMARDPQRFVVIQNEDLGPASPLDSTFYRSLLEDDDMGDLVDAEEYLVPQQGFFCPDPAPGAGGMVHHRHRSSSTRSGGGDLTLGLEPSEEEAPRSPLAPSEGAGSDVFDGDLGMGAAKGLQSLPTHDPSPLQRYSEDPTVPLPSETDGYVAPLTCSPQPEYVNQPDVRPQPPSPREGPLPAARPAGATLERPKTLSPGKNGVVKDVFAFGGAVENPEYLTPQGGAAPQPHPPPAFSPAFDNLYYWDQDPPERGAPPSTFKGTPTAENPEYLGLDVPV
# experiment.description: Her2 expression decrease, cell viability multiplex – SKBR3 breast tumor cells, AlphaScreen, ATP viability, primary screen (AID 461);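 as to viability: percent of carrier control wells set as 100% viability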
# reported.conditions: 18-24 h, at 10 µM, stronger effect = lower value
Output 1 (yes) for records whose Her2 level is lower than 90%, 0 (no) for records at or above 90%.

Task item: Determine whether this molecule shows Her2 level lower than 90% (ties excluded): O=C(NCCSc1c[nH]c2ccccc12)c1ccco1
Reply: 0 (no)

Task item: Is the reported Her2 level for CCOC(=O)c1cc2c(=O)n3ccccc3nc2n(Cc2ccccc2)c1=N strictly below 90%?
Reply: 1 (yes)

Task item: Answer whether the molecule COc1ccc(C2CC(c3ccco3)n3ncnc3N2)cc1 (configuration not stated) has Her2 level strictly less than 90%
Reply: 0 (no)

Task item: Below 90% on Her2 level? Entry CCn1cc(SCC(=O)NCC2CCCO2)c2ccccc21 (configuration not stated)
Reply: 0 (no)

Task item: Report whether reported Her2 level is lower than 90% (strictly) for COCCCNC(=O)Cn1cc2c(n1)CCC(C)C2 (configuration not stated)
Reply: 0 (no)

Task item: I'd appreciate it if you could check whether Fc1cccc(Nc2ncnc3c2cnn3-c2ccccc2)c1 has Her2 level smaller than 90%.
Reply: 1 (yes)

Task item: Quick check: Her2 level of CCOc1ccc(NC(=O)CSc2nccn2C)cc1 under 90%?
Reply: 1 (yes)

Task item: hey, is Her2 level for NC(=O)C1CCN(C(=O)c2cc3n(n2)C(C(F)(F)F)CC(c2ccco2)N3)CC1 (configuration not stated) lower than 90% or not?
Reply: 0 (no)

Task item: Threshold test, Her2 level < 90%: CCOC(=O)c1cccc(NC2c3ccccc3C(=O)N2Cc2ccco2)c1 (configuration not stated)
Reply: 0 (no)

Task item: Report whether reported Her2 level is lower than 90% (strictly) for Cc1cc(NC(=O)COc2cccc(C)c2C)no1
Reply: 0 (no)

====

# experiment.description: Her2 expression decrease, cell viability multiplex – SKBR3 breast tumor cells, AlphaScreen, ATP viability, primary screen (AID 461);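 as to viability: percent of carrier control wells set as 100% viability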
# reported.conditions: SKBR3 Her2 protein level, 18-24 h, measured here: SKBR3 viability, ATP luminescence, at 10 µM
metric: viability (%)
Use % as the unit, but write only the number.

Task item: Return the recorded viability value; entry: CCn1c(SCC(=O)Nc2ccc(Cl)cc2)nnc1C1CC1
Reply: 92.5

Task item: Fill in viability for record O=C(OCCN(CCOC(=O)c1ccncc1)S(=O)(=O)c1cccs1)c1ccncc1
Reply: 102

Task item: Output viability of CCN(CC)CCCNC(=O)c1cn(C)c2ccc(S(=O)(=O)N(C)C)cc2c1=O
Reply: 98.5

Task item: State its viability for this compound: O=C(Cn1cc2c(n1)CCCCC2)N1CCc2ccccc21
Reply: 85.5

Task item: Assign viability to the following record: Cc1cccc(N2CCN(C(=O)c3cc4ccccc4oc3=O)CC2)c1C
Reply: 90.5

Task item: Tell me viability reported for CCOc1ccccc1N1Cc2cc(C)c(C)cc2C1
Reply: 92.5

Task item: Please report the measured viability for COC(=O)c1sc(NC(=O)COc2ccccc2OC)nc1C
Reply: 99.5

Task item: // fetch viability given entry Cc1ccc(C)n1-n1c(C)nc2sc(-c3ccccc3)cc2c1=O
Reply: 89

Task item: Provide measured viability value, entry: O=C(CS(=O)(=O)Cc1ccccc1)Nc1nc2ccccc2s1
Reply: 104

Task item: Give recorded viability. Cc1nc2ccc(S(=O)(=O)NC(C(=O)NCc3cccs3)C(C)C)cc2s1 (stereo unspecified)
Reply: 88.5

Task item: Query viability for O=C(c1sc2ccccc2c1Cl)N(Cc1cccs1)C1CCS(=O)(=O)C1 (stereo unspecified)
Reply: 100

Task item: Check the records and state viability for COc1cccc(-c2nc(CS(=O)(=O)CC(=O)N3CCN(c4ccccn4)CC3)c(C)o2)c1
Reply: 90

Task item: Specify viability for Cc1nn(C(=O)c2ccc3c(c2)OCO3)c(N)c1-c1ccccc1 and stop.
Reply: 102

Task item: Report measured viability; entry is O=C(Nc1nnc(-c2ccc(Cl)cc2)o1)C1CCCCC1
Reply: 87.5

Task item: Entry CCOC(=O)c1sc2nc(NC(=O)C3CCCCC3)sc2c1C needs its viability filled in; supply it.
Reply: 95.5

Task item: Please list viability recorded for the compound CN1CCN(CC(=O)N2c3ccccc3C(C)(c3ccccc3)CC2(C)C)CC1 (stereo unspecified)
Reply: 87

Task item: Could you please provide reported viability for CCCCCn1c(CCNC(=O)CCC)nc2ccccc21 ? Thanks!
Reply: 96.5

Task item: For the compound O=C1CCCC2=C1C(c1cccc(Br)c1)n1nc(-c3ccco3)nc1N2 (stereo unspecified) , give its measured viability value.
Reply: 95.5

Task item: // Input: CCOC(=O)c1ccc(NC(=O)CC2SC(=NC)N(C)C2=O)cc1 (stereo unspecified) . Output its viability only.
Reply: 107

Task item: Output measured viability for this item: COc1cc(NC(=O)CC(C)C)ccc1NC(=O)c1ccco1
Reply: 94.5

Task item: Fill in reported viability for this entry: CCc1cccc(NC(=O)Cn2cc3c(n2)CCCC3)c1
Reply: 105

Task item: Note down viability recorded for COc1cccc(C2CC(c3ccc(C)cc3)Nc3nc(N)nn32)c1 (stereo unspecified)
Reply: 88

Task item: Query viability for COc1ccccc1-n1c(=O)[nH]c2c(C(N)=O)nc(CC(C)C)nc21
Reply: 81

Task item: For CCOC(=O)N1CCC(NC(=O)c2cc(C(=O)NC3CCCC3)ccc2CO)CC1 , write its viability.
Reply: 97.5

Task item: Find the measured viability of O=C1CC(c2ccccc2)CC(O)=C1C=NCCN1CCOCC1 (stereo unspecified) and report it.
Reply: 96.5

Task item: Assign viability to the following record: COc1cccc(/C=N/n2cnnc2)c1OCc1ccccc1
Reply: 98

Task item: Consider the compound COCCNC(=O)c1ccc(CS(=O)(=O)c2c(Cl)cccc2Cl)o1 and give its recorded viability.
Reply: 84.5

Task item: Name the recorded viability of the item Cc1ccc(-c2cc3nc4c(c(=O)n3[nH]2)CCCC4)cc1 in your answer.
Reply: 105

Task item: Given Cc1cccc(C)c1OCc1nnc(SCC(=O)Nc2ccccc2F)o1 , respond with its viability.
Reply: 95.5

Task item: Answer with reported viability of CC(=O)n1cc(-c2ccncc2)c2ccccc21
Reply: 94

Task item: # return recorded viability for input COc1cccc(CNC(=O)CCS(=O)(=O)c2cccc3nsnc23)c1
Reply: 106

Task item: Given the compound CSc1ccccc1NC(=O)c1cnc2n(c1=O)CCS2 , write its reported viability.
Reply: 97.5

Task item: Answer with reported viability of COc1ccc(CNC(=O)c2ccc(CN3CCOCC3)cc2)cc1
Reply: 116

Task item: Quick one: give measured viability for CC1(C)CC(=O)C(C=NCC2CCNCC2)=C(O)C1
Reply: 104

Task item: Provide viability value for the following compound: COc1ccc(-c2nc(CSCC(=O)N3CCc4ccccc4C3)c(C)o2)cc1OC
Reply: 88.5

Task item: Consider the compound CCSc1nc(O)c(CC)c(=O)n1C(C)CC (stereo unspecified) and give its recorded viability.
Reply: 104

Task item: Give me measured viability, please, for this compound: Cc1ccc(S(=O)(=O)NCCOC(=O)Nc2sc(=S)n(C)c2C)cc1
Reply: 75.5

Task item: Answer with reported viability of CCCn1c(NCc2cc(C)ccc2O)nc2ccccc21
Reply: 94.5

Task item: Give a short answer stating reported viability for Cc1cc(C)cc(N(CC(=O)Nc2cccc(C)n2)S(=O)(=O)c2c(C)noc2C)c1 .
Reply: 88.5

Task item: Provide measured viability value, entry: O=C(NCc1ccc2c(c1)OCO2)C1CCCN(S(=O)(=O)c2cccc3cccnc23)C1 (stereo unspecified)
Reply: 95.5

Task item: Query viability for COc1ccc(C(=O)c2coc3ccc(O)c(CN4CCCCC4)c23)cc1
Reply: 79.5

Task item: Complete the entry with viability for O=C(NC(=O)c1cccc(F)c1)OC[C@@H]1CCCN2CCCC[C@H]12
Reply: 102

Task item: Annotate the compound Cc1nnc(NC(=O)CSc2nc3c(c(=O)n2C)SC(C)C3)s1 (stereo unspecified) with its measured viability.
Reply: 89

Task item: Give viability for COc1ccc(C(C(=O)NC2CCCCC2)N2CCC3(CC2)OCCO3)cc1 (stereo unspecified)
Reply: 86

Task item: Supply reported viability belonging to this compound: CCOC(=O)c1ccc(NCc2nc3ccccc3[nH]2)cc1
Reply: 88.5

Task item: Supply reported viability belonging to this compound: CC(=O)NC(C)c1nc2ccccc2n1C(C)C (stereo unspecified)
Reply: 90
